tested on: Mycobacterium tuberculosis; assay: Cornell M. t heat shock assay; type: functional, organism-based; parameters: dose or concentration left out as unconfirmed; note: in the data most compounds retested in dose-response had high values
The whole screen tested about 69,000 compounds, of which about 950 (1.4%) showed an effect of 50% or more. The sample holds strong results, similar compounds and a random draw of the others, so the mix is not that of the screen.
I'd appreciate it if you marked entries yes when Percent Effect is lower than 10% and no when it is not.

Compound: O=C(Nc1nccs1)c1csc(NC2CCCC2)n1
Target Or System: Mycobacterium tuberculosis
Label: no

Lab note: confirm whether the reported Percent Effect for this compound is below 10%, equality not counting. compound: CC(C)CCNc1nc(C(=O)NC2CC2)cs1 no

Try this compound too: Cc1cc2nc(C(C)C)cc(NC(C)c3nncn3C)n2n1 (stereo not given) yes

And Cc1cnc(NC(=O)c2csc(NCC(C)C)n2)s1 ? no

Lookup CC(C)c1cc(NCC(O)c2ccc(F)cc2)n2nccc2n1 (stereo not given) no

Entry CC(C)CCNC(=O)c1csc(NC2CC2)n1 please no

Also, Cc1cc2nc(C(C)C)cc(NCC(c3ccccn3)N(C)C)n2n1 (stereo not given) please. no
